I'd be grateful if you could share measured total protein half-life in vivo for these entries.
experiment: total protein half-life in vivo (active degradation + dilution); higher = more stable protein; details: E. coli NCM3722 delta-hslV; growth: N-lim chemostat; doubling time 6 h
Numbers only, in h.

SEQUENCE_STRING	UNIT_NAME	VALUE_REPORTED
MIKKIFALPVIEQISPVLSRRKLDELDLIVVDHPQVKASFALQGAHLLSWKPAGEEEVLWLSNNTPFKNGVAIRGGVPVCWPWFGPAAQQGLPAHGFARNLPWTLKSHHEDADGVALTFELTQSEETKKFWPHDFTLLAHFRVGKTCEIDLESHGEFETTSALHTYFNVGDIAKVSVSGLGDRFIDKVNDAKENVLTDGIQTFPDRTDRVYLNPQDCSVINDEALNRIIAVGHQHHLNVVGWNPGPALSISMGDMPDDGYKTFVCVETAYASETQKVTKEKPAHLAQSIRVAKR	h	6.17
MGLMNAFDSQTEDSSPAIGRNLRSRPLARKKLSEMVEEELEQMIRRREFGEGEQLPSERELMAFFNVGRPSVREALAALKRKGLVQINNGERARVSRPSADTIIGELSGMAKDFLSHPGGIAHFEQLRLFFESSLVRYAAEHATDEQIDLLAKALEINSQSLDNNAAFIRSDVDFHRVLAEIPGNPIFMAIHVALLDWLIAARPTVTDQALHEHNNVSYQQHIAIVDAIRRHDPDEADRALQSHLNSVSATWHAFGQTTNKKK [P0A8W0]	h	3.63

Query: Quick one: total protein half-life in vivo of `MQTEHVILLNAQGVPTGTLEKYAAHTADTRLHLAFSSWLFNAKGQLLVTRRALSKKAWPGVWTNSVCGHPQLGESNEDAVIRRCRYELGVEITPPESIYPDFRYRATDPSGIVENEVCPVFAARTTSALQINDDEVMDYQWCDLADVLHGIDATPWAFSPWMVMQATNREARKRLSAFTQLK` ?
Response: 4.79

* * *

experiment: total protein half-life in vivo (active degradation + dilution); higher = more stable protein; conditions: wild type E. coli NCM3722; growth: C-lim chemostat; doubling time 3 h
MEASURED_METRIC: total protein half-life in vivo (h)
Give bare numbers, in h.

Dear colleague, could you send me total protein half-life in vivo for each of the items below? Thanks.
1. MKKKILAFGLISALFCSTPAMADMNRTTKGALLGAGVGLLTGNGVNGVLKGAAVGAGVGAVTEKGRDGKNARKGAKVGAAVGAVTGVLTGNGLEGAIKGAVIGGTGGAILGKMK [Q7DFV3]
2. MRYRIFLLFFFALLPTSLVWAAPAQRAFSDWQVTCNNQNFCVARNTGDHNGLVMTLSRSAGAHTDAVLRIERGGLKSPEASEGEIAPRLLLDGEPLALSGDKWRISPWLLVTDDTATITAFLQMIQEGKAITLRDGDQTISLSGLKAALLFIDAQQKRVGSETAWIKKGDEPPLSVPPAPALKEVAVVNPTPTPLSLEERNDLLDYGNWRMNGLRCSLDPLRREVNVTALTDDKALMMISCEAGAYNTIDLAWIVSRKKPLASRPVRLRLPFNNGQETNELELMNATFDEKSRELVTLAKGRGLSDCGIQARWRFDGQRFRLVRYAAEPTCDNWHGPDAWPTLWITR

Response:
1.42
3.44

* * *

test: total protein half-life in vivo (active degradation + dilution); higher = more stable protein; settings: E. coli NCM3722 delta-smpB; growth: N-lim chemostat; doubling time 6 h
MEASURED_METRIC: total protein half-life in vivo (h)
One number for each entry, in h.

As a guide, the following entries are already answered.
SEQUENCE_STRING	MEASURED_METRIC	VALUE_REPORTED
MSESLSWMQTGDTLALSGELDQDVLLPLWEMREEAVKGITCIDLSRVSRVDTGGLALLLHLIDLAKKQGNNVTLQGVNDKVYTLAKLYNLPADVLPR	total protein half-life in vivo	5.75
MRIVTAAVMASTLAVSSLSHAAEVGSGDNWHPGEELTQRSTQSHMFDGISLTEHQRQQMRDLMQQARHEQPPVNVSELETMHRLVTAENFDENAVRAQAEKMANEQIARQVEMAKVRNQMYRLLTPEQQAVLNEKHQQRMEQLRDVTQWQKSSSLKLLSSSNSRSQ [P0AE85]	total protein half-life in vivo	2.39
MIEKIWSGESPLWRLLLPLSWLYGLVSGAIRLCYKLKLKRAWRAPVPVVVVGNLTAGGNGKTPVVVWLVEQLQQRGIRVGVVSRGYGGKAESYPLLLSADTTTAQAGDEPVLIYQRTDAPVAVSPVRSDAVKAILAQHPDVQIIVTDDGLQHYRLARDVEIVVIDGVRRFGNGWWLPAGPMRERAGRLKSVDAVIVNGGVPRSGEIPMHLLPGQAVNLRTGTRCDVAQLEHVVAMAGIGHPPRFFATLKMCGVQPEKCVPLADHQSLNHADVSALVSAGQTLVMTEKDAVKCRAFAEENWWYLPVDAQLSGDEPAKLLTQLTLLASGN	total protein half-life in vivo	5.71
MSEQLVTPENVTTKDGKINLLDLNRQQMREFFKDLGEKPFRADQVMKWMYHYCCDNFDEMTDINKVLRGKLKEVAEIRAPEVVEEQRSSDGTIKWAIAVGDQRVETVYIPEDDRATLCVSSQVGCALECKFCSTAQQGFNRNLRVSEIIGQVWRAAKIVGAAKVTGQRPITNVVMMGMGEPLLNLNNVVPAMEIMLDDFGFGLSKRRVTLSTSGVVPALDKLGDMIDVALAISLHAPNDEIRDEIVPINKKYNIETFLAAVRRYLEKSNANQGRVTIEYVMLDHVNDGTEHAHQLAELLKDTPCKINLIPWNPFPGAPYGRSSNSRIDRFSKVLMSYGFTTIVRKTRGDDIDAACGQLAGDVIDRTKRTLRKRMQGEAIDIKAV	total protein half-life in vivo	1.15

Report total protein half-life in vivo for each item below.
1. MFNSDNLRLDGKCAIITGAGAGIGKEIAITFATAGASVVVSDINADAANHVVDEIQQLGGQAFACRCDITSEQELSALADFAISKLGKVDILVNNAGGGGPKPFDMPMADFRRAYELNVFSFFHLSQLVAPEMEKNGGGVILTITSMAAENKNINMTSYASSKAAASHLVRNMAFDLGEKNIRVNGIAPGAILTDALKSVITPEIEQKMLQHTPIRRLGQPQDIANAALFLCSPAASWVSGQILTVSGGGVQELN [P0AET8]
2. MIEFSHVSKLFGAQKAVNDLNLNFQEGSFSVLIGTSGSGKSTTLKMINRLVEHDSGEIRFAGEEIRSLPVLELRRRMGYAIQSIGLFPHWSVAQNIATVPQLQKWSRARIDDRIDELMALLGLESNLRERYPHQLSGGQQQRVGVARALAADPQVLLMDEPFGALDPVTRGALQQEMTRIHRLLGRTIVLVTHDIDEALRLAEHLVLMDHGEVVQQGNPLTMLTRPANDFVRQFFGRSELGVRLLSLRSVADYVRREERADGEALAEEMTLRDALSLFVARGCEVLPVVNMQGQPCGTLHFQDLLVEA

Response:
4.27
4.51

* * *

test: total protein half-life in vivo (active degradation + dilution); higher = more stable protein; conditions: wild type E. coli NCM3722; growth: C-lim chemostat; doubling time 3 h
MEASURED_METRIC: total protein half-life in vivo (h)
Give bare numbers, in h.

SEQUENCE_STRING	VALUE_REPORTED
MSTTWFVGADWLAEHIDDPEIQIIDARMASPGQEDRNVAQEYLNGHIPGAVFFDIEALSDHTSPLPHMLPRPETFAVAMRELGVNQDKHLIVYDEGNLFSAPRAWWMLRTFGVEKVSILGGGLAGWQRDDLLLEEGAVELPEGEFNAAFNPEAVVKVTDVLLASHENTAQIIDARPAARFNAEVDEPRPGLRRGHIPGALNVPWTELVREGELKTTDELDAIFFGRGVSYDKPIIVSCGSGVTAAVVLLALATLDVPNVKLYDGAWSEWGARADLPVEPVK	3.13
MTTPTFDTIEAQASYGIGLQVGQQLSESGLEGLLPEALVAGIADALEGKHPAVPVDVVHRALREIHERADAVRRQRFQAMAAEGVKYLEENAKKEGVNSTESGLQFRVINQGEGAIPARTDRVRVHYTGKLIDGTVFDSSVARGEPAEFPVNGVIPGWIEALTLMPVGSKWELTIPQELAYGERGAGASIPPFSTLVFEVELLEIL [P0A9L3]	3.06
MLIFEGKEIETDTEGYLKESSQWSEPLAVVIAENEGISLSPEHWEVVRFVRDFYLEFNTSPAIRMLVKAMANKFGEEKGNSRYLYRLFPKGPAKQATKIAGLPKPVKCI [P0AB18]	2.84
MRLFNWRRQAVLNAMPLVKPDQVRTPWHEFWRRFRRQHMAMTAALFVILLIVVAIFARWIAPYDAENYFDYDNLNNGPSLQHWFGVDSLGRDIFSRVLVGAQISLAAGVFAVFIGAAIGTLLGLLAGYYEGWWDRLIMRICDVLFAFPGILLAIAVVAVLGSGIANVIIAVAIFSIPAFARLVRGNTLVLKQQTFIESARSIGASDMTVLLRHILPGTVSSIVVFFTMRIGTSIISAASLSFLGLGAQPPTPEWGAMLNEARADMVIAPHVAVFPALAIFLTVLAFNLLGDGLRDALDPKIKG	3.08
MARIIVVTSGKGGVGKTTSSAAIATGLAQKGKKTVVIDFDIGLRNLDLIMGCERRVVYDFVNVIQGDATLNQALIKDKRTENLYILPASQTRDKDALTREGVAKVLDDLKAMDFEFIVCDSPAGIETGALMALYFADEAIITTNPEVSSVRDSDRILGILASKSRRAENGEEPIKEHLLLTRYNPGRVSRGDMLSMEDVLEILRIKLVGVIPEDQSVLRASNQGEPVILDINADAGKAYADTVERLLGEERPFRFIEEEKKGFLKRLFGG [P0AEZ3]	2.94

Consider the additional sequence presented here.
Query: Could you tell me which total protein half-life in vivo is on file for `MSQVQSGILPEHCRAAIWIEANVKGEVDALRAASKTFADKLATFEAKFPDAHLGAVVAFGNNTWRALSGGVGAEELKDFPGYGKGLAPTTQFDVLIHILSLRHDVNFSVAQAAMEAFGDCIEVKEEIHGFRWVEERDLSGFVDGTENPAGEETRREVAVIKDGVDAGGSYVFVQRWEHNLKQLNRMSVHDQEMVIGRTKEANEEIDGDERPETSHLTRVDLKEDGKGLKIVRQSLPYGTASGTHGLYFCAYCARLHNIEQQLLSMFGDTDGKRDAMLRFTKPVTGGYYFAPSLDKLMAL` ?
Response: 2.96
